subjectOfTest: B-Raf^V600E (Homo sapiens, UniProt P15056, V600E)
Sequence (P15056 433-726 V600E): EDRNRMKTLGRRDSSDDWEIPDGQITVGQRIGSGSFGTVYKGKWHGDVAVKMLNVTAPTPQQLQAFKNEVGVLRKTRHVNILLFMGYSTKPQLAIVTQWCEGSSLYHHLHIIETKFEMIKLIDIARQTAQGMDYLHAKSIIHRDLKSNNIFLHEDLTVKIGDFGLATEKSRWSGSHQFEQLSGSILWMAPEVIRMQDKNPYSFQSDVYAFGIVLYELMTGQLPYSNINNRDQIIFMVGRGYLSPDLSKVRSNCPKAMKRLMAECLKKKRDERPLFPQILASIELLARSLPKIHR
procedureText: In vitro B-Raf kinase assay
Type: biochemical
testParameters: read-out: Inhibition rate (%) B-Raf^V600E
endpointLabel: inhibition at 0.5 µM (%)
Respond numerically; units are % and should not be typed.

>  <molecule>
COc1cccc(-c2ccc(C=C3C(=O)NC(=S)NC3=O)o2)c1 [Compound 22b]

>  <assayValue>
34

$$$$

I have this molecule here, O=C1NC(=S)NC(=O)C1=Cc1ccc(-c2ccc(Cl)cc2)o1 [Compound 22e] , and I need its recorded inhibition at 0.5 µM. 33

I have this molecule here, O=C1NC(=S)NC(=O)C1=Cc1ccc(-c2ccccc2[N+](=O)[O-])o1 [Compound 22a] , and I need its recorded inhibition at 0.5 µM. 48

I have this molecule here, Cc1ccc(-c2ccc(C=C3C(=O)NC(=S)NC3=O)o2)cc1 [Compound 22g] , and I need its recorded inhibition at 0.5 µM. 50

I have this molecule here, CC(C)(C)c1ccc(-c2ccc(C=C3C(=O)NC(=S)NC3=O)o2)cc1 [Compound 22i] , and I need its recorded inhibition at 0.5 µM. 36

* * *

// reported inhibition at 2 µM per item
subjectOfTest: B-Raf^WT (Homo sapiens)
Sequence (P15056 433-726): as the sequence (P15056 433-726 V600E) above, with E168V counted along it
procedureText: In vitro B-Raf kinase assay
Assay type: biochemical
testParameters: read-out: Inhibition rate (%) B-Raf

>  <molecule>
CC(C)(C)c1ccc(-c2ccc(C=C3C(=O)NC(=S)NC3=O)o2)cc1 [Compound 22i]

>  <subjectOfTest>
B-Raf^WT (Homo sapiens)

>  <endpointLabel>
inhibition at 2 µM

>  <assayValue>
29%

$$$$

I have this molecule here, O=C1NC(=S)NC(=O)C1=Cc1ccc(-c2ccccc2[N+](=O)[O-])o1 [Compound 22a] , and I need its recorded inhibition at 2 µM. 38%

I have this molecule here, O=C1NC(=S)NC(=O)C1=Cc1ccc(-c2ccc([N+](=O)[O-])cc2)o1 [Compound 22c] , and I need its recorded inhibition at 2 µM. 55%

I have this molecule here, O=C1C(=Cc2ccc(-c3ccccc3[N+](=O)[O-])o2)Cc2ccccc21 [Compound 16a] , and I need its recorded inhibition at 2 µM. 11%

I have this molecule here, COc1cccc(-c2ccc(C=C3C(=O)NC(=S)NC3=O)o2)c1 [Compound 22b] , and I need its recorded inhibition at 2 µM. 6%

* * *

Observed pIC50 values for B-Raf^WT (Homo sapiens, UniProt P15056) are listed in what follows.
To interpret pIC50, take it as minus log10 of a concentration measured in moles per litre.

Known pIC50 results, listed for orientation:
>  <compound>
COc1ccc(-c2ccc(C=C3C(=O)NC(=S)NC3=O)o2)cc1 [Compound 22h]

>  <assayValue>
5.43

$$$$
>  <compound>
O=C1NC(=S)NC(=O)C1=Cc1ccc(-c2ccc(Br)cc2)o1 [Compound 22f]

>  <assayValue>
6.22

$$$$

For B-Raf^WT (Homo sapiens, UniProt P15056), provide pIC50 of O=C1NC(=S)NC(=O)C1=Cc1ccc(-c2ccc3ccccc3c2)o1 [Compound 22j] please. 5.71

* * *

subjectOfTest: B-Raf^V600E (Homo sapiens, UniProt P15056, V600E)
procedureText: In vitro B-Raf kinase assay
Type: biochemical
testParameters: read-out: Inhibition rate (%) B-Raf^V600E, 2μM of compound
endpointLabel: inhibition at 2 µM

>  <molecule>
Cc1ccc(-c2ccc(C=C3SC(=O)NC3=O)o2)cc1 [Compound 19g]

>  <subjectOfTest>
B-Raf^V600E (Homo sapiens, UniProt P15056, V600E)

>  <inhibition at 2 µM>
41%

$$$$
>  <molecule>
O=C1C(=Cc2ccc(-c3ccc(Cl)cc3)o2)Cc2ccccc21 [Compound 16e]

>  <subjectOfTest>
B-Raf^V600E (Homo sapiens, UniProt P15056, V600E)

>  <inhibition at 2 µM>
> 50%

$$$$
>  <molecule>
O=C1C(=Cc2ccc(-c3ccc(Br)cc3)o2)Cc2ccccc21 [Compound 16f]

>  <subjectOfTest>
B-Raf^V600E (Homo sapiens, UniProt P15056, V600E)

>  <inhibition at 2 µM>
42%

$$$$
>  <molecule>
O=C1NC(=O)C(=Cc2ccc(-c3ccccc3[N+](=O)[O-])o2)S1 [Compound 19a]

>  <subjectOfTest>
B-Raf^V600E (Homo sapiens, UniProt P15056, V600E)

>  <inhibition at 2 µM>
7%

$$$$
>  <molecule>
O=C1C(=Cc2ccc(-c3ccccc3[N+](=O)[O-])o2)Cc2ccccc21 [Compound 16a]

>  <subjectOfTest>
B-Raf^V600E (Homo sapiens, UniProt P15056, V600E)

>  <inhibition at 2 µM>
> 50%

$$$$

I have this molecule here, COc1ccc(-c2ccc(C=C3SC(=O)NC3=O)o2)cc1 [Compound 19h] , and I need its recorded inhibition at 2 µM. 41%
